system-name: T1, HpDnaB replicative helicase (Helicobacter pylori, UniProt O25916 1-488)
T1 sequence: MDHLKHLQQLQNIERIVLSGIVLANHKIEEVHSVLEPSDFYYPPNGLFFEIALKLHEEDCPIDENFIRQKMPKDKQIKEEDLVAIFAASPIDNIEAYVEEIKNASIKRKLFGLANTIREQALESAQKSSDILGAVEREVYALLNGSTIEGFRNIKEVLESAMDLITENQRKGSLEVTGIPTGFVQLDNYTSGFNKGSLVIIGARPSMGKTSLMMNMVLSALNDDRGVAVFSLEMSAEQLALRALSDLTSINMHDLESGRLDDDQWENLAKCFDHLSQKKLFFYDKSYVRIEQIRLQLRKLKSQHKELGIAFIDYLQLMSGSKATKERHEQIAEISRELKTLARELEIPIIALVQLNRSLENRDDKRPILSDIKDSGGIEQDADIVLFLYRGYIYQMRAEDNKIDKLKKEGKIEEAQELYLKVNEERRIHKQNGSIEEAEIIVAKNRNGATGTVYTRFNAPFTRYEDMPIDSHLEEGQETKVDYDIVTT
experimental-details: fluorescence anisotropy; 0.5 mM ATP, 5 mM MgCl2; Hill fit h 0.6509; Anisotropy: 20 mM Hepes pH 7.5, 5 mM MgCl2, 50 mM potassium acetate, 5% glycerol, 0.2 mg/ml BSA, 0.5 mM nucleotide, 1 nM DNA, 0-8 uM DnaB (dodecamer), temperature not stated; NMR: protein buffer 2.5 mM sodium phosphate pH 7.5, 130 mM NaCl, 278 K
assay-conditions: protein: recombinant; chain copies: 12; label: 5'-FAM; single strand
pKd: −log10 of the molar value.

| binder | pKd |
| --- | --- |
| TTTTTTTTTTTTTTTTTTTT (ssDNA) [5'-FAM-(dT)20] | 7.85 |
